Could you please report measured GI50 for the items listed next?
test system: SK-MEL-28; assay: NCI tumour cell line growth inhibition, 48 h
Active and inactive are the calls of the source. Cut-off read from the data, not from the text of the source: active = GI50 up to about 1.1 µM and inactive = higher.

Use these answered entries as a reference point.
Molecule: CC(C)(C)OC(=O)N1CCC2(C)CC(=O)CC=C12 (stereo not drawn)
GI50: > 100 µM (inactive)
//
Molecule: Oc1c(Cl)cc(CN(Cc2cc(Cl)c(O)c(Cl)c2)C2CCCCC2)cc1Cl
GI50: > 100 µM (inactive)
//
Molecule: O=C(Nc1nccs1)c1c(O)nc2sccn2c1=O
GI50: > 10 µM (inactive)
//
Molecule: O=[N+]([O-])C(C(Cl)=C(Cl)Cl)=C(N(Cc1ccccc1)Cc1ccccc1)N(Cc1ccccc1)Cc1ccccc1
GI50: > 100 µM (inactive)
//
Molecule: CCOC(=O)c1ccc(/N=C\c2ccc(N(CCC#N)CCC#N)cc2)cc1
GI50: > 100 µM (inactive)
//
Molecule: O/N=C1/C(=C/c2ccc(Br)cc2)CCCC1C(NO)c1ccc(Br)cc1 (stereo not drawn)
GI50: 18.6 µM (inactive)
//
Molecule: O=C1c2ccncc2C(=O)c2c(O)ccc(O)c21
GI50: 11.9 µM (inactive)
//
Molecule: CC(=O)N(N=O)c1ccc(N(N=O)C(C)=O)cc1
GI50: > 100 µM (inactive)
//
Molecule: O=c1cc(-c2ccccc2)[nH]c2c(F)ccc(F)c12
GI50: 59.8 µM (inactive)
//
Molecule: O=C1/C(=N\n2c(S)nnc2-c2ccncc2)c2cc(Cl)ccc2N1CN1CCCCC1
GI50: 65.3 µM (inactive)

Fill in GI50 for each of the 8 molecules listed.
1. CC(=O)OC1CC[C@]2(C)C3CC[C@@]4(C)C(CCC4[C@H](C)CCCC(C)C)[C@@H]3CCC2(Br)C1 (stereo partly drawn)
2. CN(C)CCn1nc(N)c2nc3cc(C(F)(F)F)ccc3nc21
3. COC1C(=O)N(SC)C1c1ccccc1Cl (stereo not drawn)
4. Nc1ccc(Oc2ccc(C34CC5CC6C3CC3CC4C(C5)C6(c4ccc(Oc5ccc(N)c(O)c5)cc4)C3)cc2)cc1O
5. O=C(CP(=O)(O)O)c1cccs1
6. Cc1ccc(C(=O)/C=C/c2ccccc2Cl)cc1
7. CN(N=O)C(=O)ON1C(=O)CCC1=O
8. Clc1ccccc1CN1COc2c(cc(Cl)c3cccnc23)C1

1: 7.91 µM (inactive); 2: > 100 µM (inactive); 3: > 100 µM (inactive); 4: 7.06 µM (inactive); 5: > 100 µM (inactive); 6: 14.2 µM (inactive); 7: > 100 µM (inactive); 8: 6.27 µM (inactive)

Fill in GI50 for each of the 5 molecules listed.
1. COC(=O)C1CCC(=O)N1CN(C(C)=O)c1cccc(O)c1 (stereo not drawn)
2. Clc1cccc(Cl)c1C(Nc1nncs1)Nc1nncs1
3. C[Si](C)(N[Si](C)(C)OCCc1ccccc1)OCCc1ccccc1
4. Cc1cc(C)nc(NC(=O)c2ccc(Br)s2)c1
5. COc1cc(C=O)c(-c2cc(OC)c(OC)cc2C=O)cc1OC

["> 100 µM (inactive)", "21.8 µM (inactive)", "> 100 µM (inactive)", "> 100 µM (inactive)", "47.8 µM (inactive)"]

* * *

tested on: TK-10; assay: NCI tumour cell line growth inhibition, 48 h
Calls of active or inactive are those of the source. Rule as the data show it: active = GI50 up to about 1.1 µM and inactive = higher.
Property name: GI50

Molecule: CC(=O)OC1CC[C@]2(C)C3CC[C@@]4(C)C(CCC4[C@H](C)CCCC(C)C)[C@@H]3CCC2(Br)C1 (some centres undefined)
GI50: 12.8 µM (inactive)

Fill in GI50 for each of the 3 molecules listed.
1. O=C(O)c1cccc2cccc(-c3cccc4cccc(C(=O)O)c34)c12
2. C[C@]12CC[C@H]3[C@@H](CC=C4C[C@@H](N5CCCC5)CC[C@@]43C)[C@@H]1C/C(=C\c1ccc([N+](=O)[O-])cc1)[C@@H]2O
3. O=S(=O)(c1ccc(Cl)cc1)c1ccccc1C1=NCCN1

> 100 µM (inactive)
17.5 µM (inactive)
> 100 µM (inactive)

* * *

system: M19-MEL; assay: NCI tumour cell line growth inhibition, 48 h
The source made the active and inactive calls. Cut-off read from the data, not from the text of the source: active = GI50 up to about 1.1 µM and inactive = higher.
Property name: GI50

Compound: N#CC1C[C@@H]2CC3(CCC2CN1C(=O)c1ccccc1)OCCO3 (stereo not given in full)
Result: > 100 µM (inactive)

Compound: O=C(O[C@H]1[C@@H]2C=CO[C@@H](OC3OC(CO)C(O)C(O)C3O)[C@@H]2[C@@]2(CO)O[C@@H]12)c1ccc(O)c(O)c1 (stereo not given in full)
Result: > 100 µM (inactive)

Compound: O=C1CC(S(=O)(=O)O)C=C1Nc1cccc(Cl)c1 (stereo not given)
Result: > 100 µM (inactive)

Compound: COC1=CC(=O)OC(/C=C(C)/C=C/C2=C(C)CCCC2(C)C)C1 (stereo not given)
Result: > 100 µM (inactive)

Compound: O=C1CCCc2c(O)ccc(O)c21
Result: 93.5 µM (inactive)

Fill in GI50 for each of the 3 compounds listed.
1. N#CC(C#N)=C1CCC2C(=C(C#N)C#N)CCC12 (stereo not given)
2. CCOc1ccc(NC(=O)C(=O)CC(=O)C2=C(C)Nc3ccccc3S2)cc1
3. CC1(C)CC(C2CC(C)(C)CC(C)(C)[C@H]2O)[C@@H](O)C(C)(C)C1 (stereo not given in full)

1: > 100 µM (inactive); 2: > 50 µM (inactive); 3: > 100 µM (inactive)

Fill in GI50 for each of the 2 compounds listed.
1. NC1=NN(c2ccccc2)C(=O)C1C(=O)C(=O)Nc1cccc(C(F)(F)F)c1 (stereo not given)
2. CC1=C(/C(C)=N/NC(=O)c2ccccc2O)C(C)C(/C(C)=N/NC(=O)c2ccccc2O)=C(C)N1

["> 100 µM (inactive)", "18.7 µM (inactive)"]

* * *

system: OVCAR-3; test: NCI tumour cell line growth inhibition, 48 h
Active and inactive are the calls of the source. No stated cut-off is given here; in the data, active = GI50 up to about 1.1 µM and inactive = higher.
Could you please report measured GI50 for the items listed next?

Use these answered entries as a reference point.
Compound: CCOC(=O)c1c(C)nc2c3ccccc3c(C#N)c(C)n12
GI50: > 100 µM (inactive)

Compound: COc1ccc2c(c1)C(CCN)C(=O)N2 (stereo unspecified)
GI50: > 100 µM (inactive)

Fill in GI50 for each of the 5 compounds listed.
1. Cn1c(S)nnc1CNc1ccc(-c2nnc(S)n2C)cc1
2. O=c1c2ccccc2nc(-c2cccc([N+](=O)[O-])c2)n1O
3. COc1ccc(C(=O)/C=C/c2ccc(OCC(=N)N)cc2)cc1
4. O=C(O)C(SC(=S)c1ccc(C(=S)SC(C(=O)O)c2ccccc2)cc1)c1ccccc1 (stereo unspecified)
5. N/C(=N\c1ccc(Cl)cc1)NS(=O)(=O)c1cccc2nsnc12

["> 100 µM (inactive)", "31.6 µM (inactive)", "14.4 µM (inactive)", "56.5 µM (inactive)", "44.3 µM (inactive)"]

Fill in GI50 for each of the 4 compounds listed.
1. N#CC1C[C@@H]2CC3(CCC2CN1C(=O)c1ccccc1)OCCO3 (stereo partly specified)
2. NC(CP(=O)(O)O)C(=O)O (stereo unspecified)
3. Cc1oc2nc1C(=O)NCc1nc(cs1)C(=O)N[C@H](C(C)C)c1nc(cs1)C(=O)N[C@H]2C
4. COc1ccc2c(c1)CCc1cnn(C3OC(COC(C)=O)C(OC(C)=O)C(OC(C)=O)C3OC(C)=O)c1-2 (stereo unspecified)

["> 100 µM (inactive)", "> 100 µM (inactive)", "> 100 µM (inactive)", "23.9 µM (inactive)"]

* * *

tested on: 786-0; assay: NCI tumour cell line growth inhibition, 48 h
Activity calls are given as the source filed them. Cut-off read from the data, not from the text of the source: active = GI50 up to about 1.1 µM and inactive = higher.
Could you please report measured GI50 for the items listed next?

Use these answered entries as a reference point.
Compound: CC(NNC(=O)c1ccncc1)c1cccc(C(F)(F)F)c1 (stereo not given)
GI50: > 100 µM (inactive)
//
Compound: Clc1ccc(C2=NOC(C3CCCCC3)C2)cc1 (stereo not given)
GI50: > 100 µM (inactive)
//
Compound: Cc1ccc(C(=O)Nc2ccc(CP(=O)(O)O)cc2CP(=O)(O)O)cc1NC(=O)c1cccc(NC(=O)Nc2cccc(C(=O)Nc3cc(C(=O)Nc4ccc(CP(=O)(O)O)cc4CP(=O)(O)O)ccc3C)c2)c1
GI50: > 100 µM (inactive)
//
Compound: Cc1nnc(-n2c(O)cc(=O)n(-c3ccccc3)c2=S)nc1/C=C/c1ccc(N(C)C)cc1
GI50: 12.3 µM (inactive)
//
Compound: CCN(CC)c1c(C(=O)/C=C/c2ccc(Cl)cc2)c(-c2ccccc2)nn(C)c1=O
GI50: 1.85 µM (inactive)

Fill in GI50 for each of the 4 compounds listed.
1. O=C(NCCCCCCCCCCCCNC(=O)c1cnc2ccccc2n1)c1cnc2ccccc2n1
2. Cc1cc(N(CCC#N)CCC#N)ccc1/C=C1N=C(/C=C\c2ccccc2)N(c2ccc(Cl)cc2)C\1=O
3. O=[N+]([O-])c1ccc(Cl)cc1C1ON=C(c2ccccc2)N1C12CC3CC(CC(C3)C1)C2 (stereo not given)
4. Nc1nc(NCc2ccccc2)cc(NCc2ccccc2)n1

31.7 µM (inactive)
54.8 µM (inactive)
> 100 µM (inactive)
4.92 µM (inactive)
